- Test system: Alternaria solani (ALTESO)
- protocol notes: Fungal growth assay in 96 well plates
- Format: cell-based
- run conditions: evaluation 3 d after inoculation, OD 600 nm, YBG, about 18° C.; read-out: Fungal growth inhibition (IC50) ALTESO (3 d)
Where a SMILES comes first, the peptide text is derived from it. Bridges are numbered along the chain shown (N, C = ends). [ ]: non-standard residue; d: D form. The star is where a group is joined. ξ: configuration not given here. Pentadecanoyl(3ξ-OH,15-Gua) = N=C(N)NCCCCCCCCCCCCC(O)CC(=O)*; d(aThr) = C[C@@H](O)[C@@H](N)C(=O)O; Thr(3ξ) = CC(O)[C@H](N)C(=O)O; ξY = NC(Cc1ccc(O)cc1)C(=O)O
property label: IC50 (µM)

INSERT INTO results (molecule, property_label, unit_descriptor, value) VALUES
  ('CCC(C)C1NC(=O)C(NC(=O)CC(O)CCCCCCCCCCCCNC(=N)N)C(C)OC(=O)C(C)NC(=O)C(CCC(N)=O)NC(=O)C(C(C)O)NC(=O)C(Cc2ccc(O)cc2)NC1=O (centres unmarked) [Compound 1B] ({Pentadecanoyl(3ξ-OH,15-Gua)}-TIYTQA; ester 1-C; configuration not given here)', 'IC50', 'µM', 0.6),
  ('CC1OC(=O)[C@@H](C)NC(=O)[C@@H](CCC(N)=O)NC(=O)[C@@H]([C@H](C)O)NC(=O)C(Cc2ccc(O)cc2)NC(=O)[C@@H](C(C)C)NC(=O)[C@H]1NC(=O)CC(O)CCCCCCCCCCCCN=C(N)N (some centres unmarked) [Compound 2B, fusaricidin D] ({Pentadecanoyl(3ξ-OH,15-Gua)}-[Thr(3ξ)][dV][ξY][dT][dQ][dA]; ester 1-C)', 'IC50', 'µM', 1.1),
  ('CC(C)[C@@H]1NC(=O)[C@@H](C(C)C)NC(=O)[C@@H](NC(=O)CC(O)CCCCCCCCCCCCN=C(N)N)[C@@H](C)OC(=O)[C@@H](C)NC(=O)[C@@H](CC(N)=O)NC(=O)[C@@H]([C@@H](C)O)NC1=O (some centres unmarked) [Compound 5A, fusaricidin A] ({Pentadecanoyl(3ξ-OH,15-Gua)}-T[dV]V[d(aThr)][dN][dA]; ester 1-C)', 'IC50', 'µM', 1.3),
  ('CC(C)[C@@H]1NC(=O)[C@@H](C(C)C)NC(=O)[C@@H](NC(=O)CC(O)CCCCCCCCCCCCN=C(N)N)C(C)OC(=O)[C@@H](C)NC(=O)[C@@H](CCC(N)=O)NC(=O)[C@@H]([C@H](C)O)NC1=O (stereo in doubt) [Compound 5B, fusaricidin B]', 'IC50', 'µM', 1.1),
  ('CCC(C)C1NC(=O)C(NC(=O)CC(O)CCCCCCCCCCCCNC(=N)N)C(C)OC(=O)C(C)NC(=O)C(CC(N)=O)NC(=O)C(C(C)O)NC(=O)C(Cc2ccc(O)cc2)NC1=O (centres unmarked) [Compound 1A] ({Pentadecanoyl(3ξ-OH,15-Gua)}-TIYTNA; ester 1-C; configuration not given here)', 'IC50', 'µM', 0.6);
